target: Asp-2 (Homo sapiens, UniProt P56817); experiment: Asp-2 Inhibitory Assay; type: biochemical; conditions: FAM-[SEVNLDAEFK]-TAMRA substrate, pH 4.5, 1 h at room temperature, fluorescence; read-out: inhibition (Asp2), Assay (I)
Sequence (P56817 46-501): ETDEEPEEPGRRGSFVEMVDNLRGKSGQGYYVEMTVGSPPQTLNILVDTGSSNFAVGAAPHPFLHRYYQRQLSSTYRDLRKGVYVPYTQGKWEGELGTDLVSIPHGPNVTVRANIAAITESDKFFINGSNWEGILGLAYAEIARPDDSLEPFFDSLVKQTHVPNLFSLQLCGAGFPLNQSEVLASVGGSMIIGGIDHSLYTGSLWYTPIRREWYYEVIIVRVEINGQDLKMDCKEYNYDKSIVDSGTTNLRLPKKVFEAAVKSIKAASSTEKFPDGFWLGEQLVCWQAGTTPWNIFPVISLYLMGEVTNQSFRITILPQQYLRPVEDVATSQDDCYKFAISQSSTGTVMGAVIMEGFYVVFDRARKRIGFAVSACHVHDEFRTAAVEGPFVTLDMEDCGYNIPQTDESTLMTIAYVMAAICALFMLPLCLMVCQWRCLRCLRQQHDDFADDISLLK
Property name: IC50

                                chem_smiles                         tested_target  property_name    obs_value
0  CS(=O)(=O)N(c1cccc(C#N)c1)c1cccc(C(=O)N[C@@H](Cc2ccccc2)[C@H](O)CNCc2cccc(C(F)(F)F)c2)c1  Asp-2 (Homo sapiens, UniProt P56817)           IC50  1 to 100 nM
